Data origin, for the record: patent US20260116910A1

- target.desc: MRGPRX4 (Homo sapiens, UniProt Q96LA9)
- Sequence (Q96LA9 whole entry): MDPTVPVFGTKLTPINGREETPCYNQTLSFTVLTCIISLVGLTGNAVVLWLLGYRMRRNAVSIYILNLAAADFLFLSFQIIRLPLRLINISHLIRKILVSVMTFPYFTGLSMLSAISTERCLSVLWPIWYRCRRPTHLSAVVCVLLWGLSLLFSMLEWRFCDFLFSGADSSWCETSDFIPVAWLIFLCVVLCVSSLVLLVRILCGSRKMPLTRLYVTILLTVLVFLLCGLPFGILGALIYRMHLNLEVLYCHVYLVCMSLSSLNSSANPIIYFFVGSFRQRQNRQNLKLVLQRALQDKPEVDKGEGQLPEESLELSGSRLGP
- test.method.notes: MRGPRX4 activation, Fluo-8 Ca2+ FLIPR assay in HEK293T cells stably expressing MRGPRX4
- Type: cell-based
- particulars: second E3-8-1, 370 nM, n = 1
readout.label: Activation (%)
State just the number; it will be interpreted in %.

>  <compound>
CC[C@H]1[C@@H](O)[C@@H]2[C@H](CC[C@]3(C)[C@@H]([C@H](C)CNC(=O)NS(=O)(=O)c4ccc(N5CCCCC5)nc4)CC[C@@H]23)[C@@]2(C)CCCC[C@@H]12 [20-3]

>  <target.desc>
MRGPRX4 (Homo sapiens, UniProt Q96LA9)

>  <Activation (%)>
3.17

$$$$
>  <compound>
CC[C@H]1[C@@H](O)[C@@H]2[C@H](CC[C@]3(C)[C@@H]([C@H](C)COC(=O)NS(=O)(=O)c4ccc(N5CCCCC5)nc4)CC[C@@H]23)[C@@]2(C)CCCC[C@@H]12 [18-3]

>  <target.desc>
MRGPRX4 (Homo sapiens, UniProt Q96LA9)

>  <Activation (%)>
2.24

$$$$
>  <compound>
CC[C@H]1[C@@H](O)[C@@H]2[C@H](CC[C@]3(C)[C@@H]([C@H](C)COC(=O)NS(=O)(=O)c4ccc5c(c4)CCC(C)(C)O5)CC[C@@H]23)[C@@]2(C)CCCC[C@@H]12 [18-2]

>  <target.desc>
MRGPRX4 (Homo sapiens, UniProt Q96LA9)

>  <Activation (%)>
3.48

$$$$

Request: Query: Activation (%); subject: CC[C@H]1[C@@H](O)[C@@H]2[C@H](CC[C@]3(C)[C@@H]([C@H](C)COC(=O)NS(=O)(=O)c4ccc(C(C)(C)CF)cc4)CC[C@@H]23)[C@@]2(C)CCCC[C@@H]12 [18-1]
Response: 3.17
